Experiment: Pharmacokinetics test evaluation in rats, plasma concentration by LC/MS/MS
Format: in vivo
Details: rat, plasma, po; male SD rats, 15 mg/kg by gavage, n = 4, mean
Quick list: Cmax per entry.

molecule	Cmax, µg/mL
C=C(F)C(=O)N1CCN(c2nc(OC[C@@H]3CCCN3C)nc3c2CCN(c2cccc4cccc(Cl)c24)C3)CC1CC#N (stereo partly drawn) [Control compound, reference compound]	0.123
C=C(F)C(=O)N1CCN(c2nc(OCCN(C)C3CCC3)nc3c2CCN(c2cccc4ccc(F)c(Cl)c24)C3)CC1CC#N (stereo not drawn) [Example 14]	0.0851
C=C(F)C(=O)N1CCN(c2nc(OCC3(CN(C)C)CC3)nc3c2CCN(c2cccc4cccc(Cl)c24)C3)CC1CC#N (stereo not drawn) [Example 13]	0.163

###

Tested on: NCI-H358(KRAS^G12C mutation) cells
Experiment: Cell assay of antiproliferative activity (Celltiter-Glo, 5 days) against NCI-H358 cells
Format: cell-based
Conditions: Homo sapiens, NCI-H358, 120 h, 5 days incubation
assay metric: IC50 (nM)

> print(dat)
                                    compound  measured.result
 1  C=CC(=O)N1CCN(c2nc(OCCN(C)[C@@H](C)C3CC3)nc3c2CCN(c2cccc4cccc(C)c24)C3)CC1CC#N (stereo partly shown)               50
 2  C=CC(=O)N1[C@@H]2CC[C@H]1CN(c1nc(OCC3(CN(C)C)CC3)nc3c1CCN(c1cccc4cccc(Cl)c14)C3)C2             1400
 3  C=C(F)C(=O)N1CCN(c2nc(OCC3(CN4CCC4)CC3)nc3c2CCN(c2cccc4ccc(F)c(Cl)c24)C3)C[C@@H]1CC#N               65
 4  C=C(F)C(=O)N1CCN(c2nc(OCC3(CN4CCC4)CC3)nc3c2CCN(c2cccc4cccc(Cl)c24)C3)C[C@@H]1CC#N               65
 5  C=C(F)C(=O)N1CCN(c2nc(OCC3(CCN(C)C)CC3)nc3c2CCN(c2cccc4cccc(Cl)c24)C3)C[C@@H]1CC#N              540
 6  C=C(F)C(=O)N1CCN(c2nc(OCC3(CN(C)C)COC3)nc3c2CCN(c2cccc4cccc(Cl)c24)C3)CC1CC#N (stereo not shown)               59
 7  C=C(F)C(=O)N1CCN(c2nc(OCC3(CN(C)CCOC)CC3)nc3c2CCN(c2cccc4cccc(Cl)c24)C3)C[C@@H]1CC#N               59
 8  C=C(F)C(=O)N1CCN(c2nc(OCC3(CN4CC(C)C4)CC3)nc3c2CCN(c2cccc4ccc(F)c(Cl)c24)C3)C[C@@H]1CC#N               51
 9  C=C(F)C(=O)N1CCN(c2nc(OCC3(CN4CC(F)C4)CC3)nc3c2CCN(c2cccc4ccc(F)cc24)C3)C[C@@H]1CC#N              180
10  C=C(F)C(=O)N1CCN(c2nc(OCC3(CS(C)(=O)=O)CC3)nc3c2CCN(c2cccc4cccc(Cl)c24)C3)C[C@@H]1CC#N             1300
11  C=C(F)C(=O)N1CCN(c2nc(OCC3(CN(CC)CC)CC3)nc3c2CCN(c2cccc4ccc(F)c(Cl)c24)C3)C[C@@H]1CC#N               92
12  C=CC(=O)N1CCN(c2nc(OCCN(C)C3CCC3)nc3c2CCN(c2cccc4ccc(F)c(C)c24)C3)CC1CC#N (stereo not shown)               27
13  C=CC(=O)N1CCN(c2nc(OCCN(C)CC3CC3(F)F)nc3c2CCN(c2cccc4cccc(Cl)c24)C3)CC1CC#N (stereo not shown)              110

###

Tested on: NCI-H358(KRAS^G12C mutation) cells
Experiment: Cell assay of antiproliferative activity (Celltiter-Glo, 5 days) against NCI-H358 cells
Format: cell-based
Settings: Homo sapiens, NCI-H358, 120 h, 5 days incubation
Quick list: IC50 per entry.
assay metric: IC50 (nM)

> print(dat)
                                   compound               target.or.test.system  unit.spec  measured.result
1  C=C(F)C(=O)N1CCN(c2nc(OCC3(CN(C)C(C)C)CC3)nc3c2CCN(c2cccc4cccc(Cl)c24)C3)C[C@@H]1CC#N  NCI-H358(KRAS^G12C mutation) cells         nM               61
2  C=CC(=O)N1CCN(c2nc(OCCN(C)CC3CC3)nc3c2CCN(c2cccc4cccc(C)c24)C3)CC1CC#N (centres unmarked)  NCI-H358(KRAS^G12C mutation) cells         nM               60
3  C=CC(=O)N1CCN(c2nc(OCC3(COC)CC3)nc3c2CCN(c2cccc4cccc(Cl)c24)C3)CC1CC#N (centres unmarked)  NCI-H358(KRAS^G12C mutation) cells         nM              870
4  C=C(F)C(=O)N1CCN(c2nc(OCC3(CN(C)C(C)C)CC3)nc3c2CCN(c2cccc4ccc(F)c(Cl)c24)C3)C[C@@H]1CC#N  NCI-H358(KRAS^G12C mutation) cells         nM              110
5  C=CC(=O)N1CCN(c2nc(O[C@@H](C)CN(C)CC3CC3)nc3c2CCN(c2cccc4cccc(C)c24)C3)CC1CC#N (some centres unmarked)  NCI-H358(KRAS^G12C mutation) cells         nM              860

###

Assay: Pharmacokinetics test evaluation in rats, plasma concentration by LC/MS/MS
Type: in vivo
Conditions: rat, plasma, po; male SD rats, 15 mg/kg by gavage, n = 4, mean
Quick list: AUC per entry.
assay metric: AUC (ng·h/mL)

compound	measured result
C=C(F)C(=O)N1CCN(c2nc(OCC3(CN(C)C)CC3)nc3c2CCN(c2cccc4cccc(Cl)c24)C3)CC1CC#N (stereo not drawn)	1400
C=C(F)C(=O)N1CCN(c2nc(OCCN(C)C3CCC3)nc3c2CCN(c2cccc4ccc(F)c(Cl)c24)C3)CC1CC#N (stereo not drawn)	392
C=C(F)C(=O)N1CCN(c2nc(OC[C@@H]3CCCN3C)nc3c2CCN(c2cccc4cccc(Cl)c24)C3)CC1CC#N (stereo partly drawn) [Control compound, reference compound]	830

###

Tested on: NCI-H358(KRAS^G12C mutation) cells
Experiment: Cell assay of antiproliferative activity (Celltiter-Glo, 5 days) against NCI-H358 cells
Assay type: cell-based
Details: Homo sapiens, NCI-H358, 120 h, 5 days incubation

compound	relational operator	IC50, nM
C=CC(=O)N1CCN(c2nc(OCC3(CN(C)C)CC3)nc3c2CCN(c2cccc4cccc(Cl)c24)C3)CC1C(F)(F)F (stereo not drawn) [Example 41]	=	1400
C=CC(=O)N1CCN(c2nc(OCCOC3CC3)nc3c2CCN(c2cccc4cccc(C)c24)C3)CC1CC#N (stereo not drawn) [Example 93]	=	310
C=CC(=O)N1CCN(c2nc(O[C@H](C)CN(C)CC3CC3)nc3c2CCN(c2cccc4cccc(C)c24)C3)CC1CC#N (stereo partly drawn) [Example 77]	=	1800
C=CC(=O)N1CCN(c2nc(OC[C@@H](C)N(C)C3CCC3)nc3c2CCN(c2cccc4cccc(C)c24)C3)CC1CC#N (stereo partly drawn) [Example 92]	<	100
C=C(F)C(=O)N1CCN(c2nc(OCC3(CN4CC(O)C4)CC3)nc3c2CCN(c2cccc4ccc(F)c(Cl)c24)C3)C[C@@H]1CC#N [Example 68]	=	86
[2H]C([2H])([2H])N(CC1(COc2nc3c(c(N4CCN(C(=O)C(=C)F)[C@@H](CC#N)C4)n2)CCN(c2c(C)ccc4[nH]ncc24)C3)CC1)C([2H])([2H])[2H] [Example 36]	=	250

###

Test system: NCI-H358(KRAS^G12C mutation) cells
Assay: Cell assay of antiproliferative activity (Celltiter-Glo, 5 days) against NCI-H358 cells
Type: cell-based
Details: Homo sapiens, NCI-H358, 120 h, 5 days incubation
assay metric: IC50 (nM)

> print(dat)
                                    compound  relational.operator  measured.result
 1  C=CC(=O)N1CCN(c2nc(OC[C@H](CC)N(C)C3CCC3)nc3c2CCN(c2cccc4cccc(Cl)c24)C3)CC1CC#N (stereo partly shown)                    =              130
 2  CC#CC(=O)N1CCN(c2nc(OCC3(CN(C)C)CC3)nc3c2CCN(c2cccc4cccc(Cl)c24)C3)C[C@@H]1CC#N                    =               43
 3  C=CC(=O)N1CCN(c2nc(OCC3(CN(C)C)CC3)nc3c2CCN(c2cccc4cccc(Cl)c24)C3)CC12CC2                    =             2500
 4  C=CC(=O)N1C[C@@H](C)N(c2nc(OCC3(CN(C)C)CC3)nc3c2CCN(c2cccc4cccc(Cl)c24)C3)C[C@@H]1C                    =             1900
 5  C=C(F)C(=O)N1CCN(c2nc(OCCN(C)C3CCC3)nc3c2CCN(c2cccc4ccc(F)c(Cl)c24)C3)CC1CC#N (stereo not shown)                    =               90
 6  C=CC(=O)N1CCN(c2nc(OCCN(C)C3(COC)CCC3)nc3c2CCN(c2cccc4cccc(Cl)c24)C3)CC1CC#N (stereo not shown)                    =               73
 7  C=C(F)C(=O)N1CCN(c2nc(OCCN(C)C3CCC3)nc3c2CCN(c2cccc4ccc(F)c(C)c24)C3)CC1CC#N (stereo not shown)                    =               91
 8  C=C(F)C(=O)N1CCN(c2nc(OCCN(C)C3(C)CCC3)nc3c2CCN(c2cccc4ccc(F)c(Cl)c24)C3)CC1CC#N (stereo not shown)                    =               66
 9  C=CC(=O)N1CCN(c2nc(OCCN(CCOC)C3CCC3)nc3c2CCN(c2cccc4cccc(Cl)c24)C3)CC1CC#N (stereo not shown)                    =               60
10  C=CC(=O)N1CCN(c2nc(OCC3(CN(C)C)CCC3)nc3c2CCN(c2cccc4cccc(Cl)c24)C3)CC1CC#N (stereo not shown)                    =               39
11  C=CC(=O)N1CCN(c2nc(OCCN(C)C3CC(F)(F)C3)nc3c2CCN(c2cccc4cccc(C)c24)C3)CC1CC#N (stereo not shown)                    <              100
12  C=C(F)C(=O)N1CCN(c2nc(OC[C@H](C)N(C)C3CCC3)nc3c2CCN(c2cccc4cccc(Cl)c24)C3)CC1CC#N (stereo partly shown)                    =              140
13  C=C(F)C(=O)N1CCN(c2nc(OCC3(CN4CC(F)C4)CC3)nc3c2CCN(c2cccc4ccc(F)c(Cl)c24)C3)C[C@@H]1CC#N                    =               45
